- EXPERIMENT_NOTES: melting temperature; melt of duplexes
- PARTICULARS: sodium 0.0675 M; strand 1 µM
Use 50 °C as the dividing line for Tm, with the line itself on the rule met side and lower values as rule not met.

| SUBSTANCE | DISCRETE_LABEL |
| --- | --- |
| CGACGTGCTATATGTGCTG+CAGCACATGCTGCACGTCG ((((((((...((((((((+))))))))...)))))))) | rule not met |
| CGACGTGCACAATGTGCTG+CAGCACATTGGGCACGTCG ((((((((.((((((((((+)))))))))).)))))))) | rule met |
| CGACGTGCAGAATGTGCTG+CAGCACATTCAGCACGTCG ((((((((.((((((((((+)))))))))).)))))))) | rule met |
| CGACGTGCGAGATGTGCTG+CAGCACATCCCGCACGTCG (((((((((.(((((((((+))))))))).))))))))) | rule met |
| CGACGTGCACCATGTGCTG+CAGCACATTTTGCACGTCG (((((((((..((((((((+))))))))..))))))))) | rule not met |

###

- EXPERIMENT_NOTES: melting temperature; melt of duplexes
- PARTICULARS: sodium 0.0675 M; strand 1 µM
Catalogue of Tm values
READOUT_LABEL: Tm (°C)

| SUBSTANCE | READING_UNIT | OBSERVED |
| --- | --- | --- |
| CGACGTGCCCCATGTGCTG+CAGCACATCTAGCACGTCG ((((((((...((((((((+))))))))...)))))))) | °C | 47.3 |
| CGACGTGCCAAATGTGCTG+CAGCACATTTTGCACGTCG ((((((((.((((((((((+)))))))))).)))))))) | °C | 55.1 |
| CGACGTGCTACATGTGCTG+CAGCACATGCCGCACGTCG ((((((((..(((((((((+)))))))))..)))))))) | °C | 52.3 |
| CGACGTGCGACATGTGCTG+CAGCACATCGCGCACGTCG (((((((((..((((((((+))))))))..))))))))) | °C | 54.1 |
| CGACGTGCATCATGTGCTG+CAGCACATTTGGCACGTCG ((((((((...((((((((+))))))))...)))))))) | °C | 48.2 |
| CGACGTGCGTTATGTGCTG+CAGCACATTGGGCACGTCG ((((((((...((((((((+))))))))...)))))))) | °C | 50.3 |
| CGACGTGCAAAATGTGCTG+CAGCACATGTAGCACGTCG ((((((((.(.((((((((+)))))))).).)))))))) | °C | 53.1 |

###

- EXPERIMENT_NOTES: melting temperature; melt of duplexes
- PARTICULARS: sodium 0.0675 M; strand 1 µM
The entries below are paired with their reported Tm.

| SUBSTANCE | Tm, °C |
| --- | --- |
| CGACGTGCGTGATGTGCTG+CAGCACATCTGGCACGTCG ((((((((..(((((((((+)))))))))..)))))))) | 55.7 |
| CGACGTGCTTAATGTGCTG+CAGCACATACGGCACGTCG ((((((((...((((((((+))))))))...)))))))) | 48.3 |
| CGACGTGCTAGATGTGCTG+CAGCACATTGAGCACGTCG (((((((((..((((((((+))))))))..))))))))) | 54 |
| CGACGTGCCAAATGTGCTG+CAGCACATAAGGCACGTCG (((((((((..((((((((+))))))))..))))))))) | 54.4 |

###

- EXPERIMENT_NOTES: melting temperature; melt of duplexes
- PARTICULARS: sodium 0.0675 M; strand 1 µM
Here, each record is paired with measured Tm data.

| SUBSTANCE | Tm |
| --- | --- |
| CGACGTGCTAGATGTGCTG+CAGCACATACTGCACGTCG ((((((((...((((((((+))))))))...)))))))) | 50.9 °C |
| CGACGTGCTCCATGTGCTG+CAGCACATCATGCACGTCG ((((((((...((((((((+))))))))...)))))))) | 47.7 °C |
| CGACGTGCGGCATGTGCTG+CAGCACATAGCGCACGTCG (((((((((..((((((((+))))))))..))))))))) | 55.9 °C |
| CGACGTGCAGTATGTGCTG+CAGCACATACCGCACGTCG ((((((((.((((((((((+)))))))))).)))))))) | 55.7 °C |

###

- EXPERIMENT_NOTES: melting temperature; melt of duplexes
- PARTICULARS: sodium 0.0675 M; strand 1 µM
Listed next: entries and their corresponding Tm.

| SUBSTANCE | READING_UNIT | Tm |
| --- | --- | --- |
| CGACGTGCGCGATGTGCTG+CAGCACATTGAGCACGTCG ((((((((.(.((((((((+)))))))).).)))))))) | °C | 56.8 |
| CGACGTGCATCATGTGCTG+CAGCACATGCTGCACGTCG (((((((((.(((((((((+))))))))).))))))))) | °C | 55.8 |
| CGACGTGCTCGATGTGCTG+CAGCACATTATGCACGTCG ((((((((...((((((((+))))))))...)))))))) | °C | 49.6 |
| CGACGTGCCGGATGTGCTG+CAGCACATGTCGCACGTCG ((((((((...((((((((+))))))))...)))))))) | °C | 49.4 |

###

- EXPERIMENT_NOTES: melting temperature; melt of duplexes
- PARTICULARS: sodium 0.0675 M; strand 1 µM
Reported Tm values for the following substances.

| SUBSTANCE | Tm (°C) |
| --- | --- |
| CGACGTGCGTAATGTGCTG+CAGCACATGACGCACGTCG ((((((((((.((((((((+)))))))).)))))))))) | 58 |
| CGACGTGCCGTATGTGCTG+CAGCACATGCCGCACGTCG ((((((((.(.((((((((+)))))))).).)))))))) | 51.6 |
| CGACGTGCTCCATGTGCTG+CAGCACATGTAGCACGTCG (((((((((.(((((((((+))))))))).))))))))) | 56.3 |
| CGACGTGCCAAATGTGCTG+CAGCACATTCGGCACGTCG (((((((((.(((((((((+))))))))).))))))))) | 57.5 |
| CGACGTGCCACATGTGCTG+CAGCACATAATGCACGTCG ((((((((...((((((((+))))))))...)))))))) | 47.5 |
| CGACGTGCAGTATGTGCTG+CAGCACATGATGCACGTCG (((((((((..((((((((+))))))))..))))))))) | 55 |
| CGACGTGCGCAATGTGCTG+CAGCACATAATGCACGTCG ((((((((...((((((((+))))))))...)))))))) | 50.5 |

###

- EXPERIMENT_NOTES: melting temperature; melt of duplexes
- PARTICULARS: sodium 0.0675 M; strand 1 µM
// label = Yes if Tm is not less than 50 °C, otherwise No

| SUBSTANCE | DISCRETE_LABEL |
| --- | --- |
| CGACGTGCGCTATGTGCTG+CAGCACATTAAGCACGTCG ((((((((...((((((((+))))))))...)))))))) | Yes |
| CGACGTGCAGCATGTGCTG+CAGCACATACCGCACGTCG ((((((((.(.((((((((+)))))))).).)))))))) | No |
| CGACGTGCTGAATGTGCTG+CAGCACATGTCGCACGTCG ((((((((...((((((((+))))))))...)))))))) | Yes |
| CGACGTGCTGGATGTGCTG+CAGCACATCGAGCACGTCG (((((((((.(((((((((+))))))))).))))))))) | Yes |
| CGACGTGCATAATGTGCTG+CAGCACATCTCGCACGTCG ((((((((...((((((((+))))))))...)))))))) | No |

###

- EXPERIMENT_NOTES: melting temperature; melt of duplexes
- PARTICULARS: sodium 0.0675 M; strand 1 µM

| SUBSTANCE | READING_UNIT | Tm |
| --- | --- | --- |
| CGACGTGCTCCATGTGCTG+CAGCACATCCGGCACGTCG ((((((((...((((((((+))))))))...)))))))) | °C | 47.7 |
| CGACGTGCCTCATGTGCTG+CAGCACATCACGCACGTCG ((((((((.(.((((((((+)))))))).).)))))))) | °C | 46.1 |
| CGACGTGCGTTATGTGCTG+CAGCACATTAGGCACGTCG ((((((((.(.((((((((+)))))))).).)))))))) | °C | 52.2 |
| CGACGTGCGAGATGTGCTG+CAGCACATTACGCACGTCG (((((((((..((((((((+))))))))..))))))))) | °C | 55.4 |
| CGACGTGCGCCATGTGCTG+CAGCACATACAGCACGTCG ((((((((...((((((((+))))))))...)))))))) | °C | 51.3 |
| CGACGTGCCTCATGTGCTG+CAGCACATCCGGCACGTCG (((((((((..((((((((+))))))))..))))))))) | °C | 51.2 |
| CGACGTGCGCAATGTGCTG+CAGCACATGGAGCACGTCG ((((((((.(.((((((((+)))))))).).)))))))) | °C | 60.2 |
| CGACGTGCGCTATGTGCTG+CAGCACATAGGGCACGTCG ((((((((.((((((((((+)))))))))).)))))))) | °C | 59.6 |
| CGACGTGCATTATGTGCTG+CAGCACATCGAGCACGTCG ((((((((...((((((((+))))))))...)))))))) | °C | 47.4 |
| CGACGTGCTAAATGTGCTG+CAGCACATTTCGCACGTCG ((((((((.((((((((((+)))))))))).)))))))) | °C | 55.3 |
| CGACGTGCGATATGTGCTG+CAGCACATGCAGCACGTCG ((((((((...((((((((+))))))))...)))))))) | °C | 53.6 |
| CGACGTGCTCGATGTGCTG+CAGCACATGTAGCACGTCG (((((((((..((((((((+))))))))..))))))))) | °C | 52.3 |
| CGACGTGCCTGATGTGCTG+CAGCACATCGAGCACGTCG ((((((((..(((((((((+)))))))))..)))))))) | °C | 55.3 |
| CGACGTGCTTCATGTGCTG+CAGCACATATCGCACGTCG ((((((((...((((((((+))))))))...)))))))) | °C | 47.5 |
| CGACGTGCGCGATGTGCTG+CAGCACATATGGCACGTCG ((((((((...((((((((+))))))))...)))))))) | °C | 50.1 |
